The reported measurements were obtained from PubChem BioAssay.

- TARGET_ENTITY: Neurogenic locus notch homolog protein 3 (Homo sapiens)
- METHOD_DESCRIPTION: small molecules binding NOTCH3 protein – biochemical, 635/667 nm fluorescence, primary screen (AID 1096)
- MEASUREMENT_SETUP: small-molecule microarray, 635 nm fluorescence, higher = more signal
Reported composite z-score values for a set of compounds
Form field (numeric): enter value without unit.

Use these answered entries as a reference point.
TEST_SMILES	TARGET_ENTITY	MEASURE	VALUE_REPORTED
CCCNC(=O)[C@@]1(Sc2ccc(C)cc2)CC(=O)N(C2Cc3ccccc3C2)[C@@H]1c1ccc(CO)cc1I	Neurogenic locus notch homolog protein 3 (Homo sapiens)	composite z-score	-0.0184
C=C(/C(=C/C[C@H](OC(=O)c1ccncc1)c1ccc(CO)o1)c1cnc2ccccc2c1)C(C)C	Neurogenic locus notch homolog protein 3 (Homo sapiens)	composite z-score	1.05

Please examine the following record next.
Record CC#CCO[Si](C#Cc1ccccc1)(C(C)C)C(C)C , field composite z-score: 0.231
